- TESTED SYSTEM: c-Jun fragment;c-Fos fragment (Homo sapiens;Homo sapiens, UniProt P05412;P01100 ;, |)
- Sequence (P05412 other isoform, or with tags, fused parts or gaps |, chain 1 of 2): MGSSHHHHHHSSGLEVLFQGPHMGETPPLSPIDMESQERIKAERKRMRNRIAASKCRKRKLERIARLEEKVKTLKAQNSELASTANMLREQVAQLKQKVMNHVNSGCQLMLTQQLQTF
- Sequence (P01100 other isoform, or with tags, fused parts or gaps |, chain 2 of 2): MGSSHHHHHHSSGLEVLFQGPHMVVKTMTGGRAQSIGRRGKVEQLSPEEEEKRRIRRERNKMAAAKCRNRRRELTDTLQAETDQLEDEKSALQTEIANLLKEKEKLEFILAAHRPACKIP
- ASSAY COMMENT: EMSA; heterodimer; 30 min; EMSA: 20 mM Tris-HCl pH 7.2, 150 mM KCl, 10 mM DTT, 8 mg/ml BSA, 0.005% Tween 20, 50 ng/ml poly(dI-dC), 2.5% Ficoll; probe ~1.6 pM; 16 h (30 min for Jun-Fos); competitive assay at 4 C; gel at 4 C
- CONDITIONS USED: protein: recombinant;recombinant; tags: N-terminal His6;N-terminal His6; copies: 1;1; label: 32P 5' end; text says 30 bp)
QUANTITY KIND: pKd
In plain terms, pKd is the concentration in mol/L turned into minus its base-10 logarithm.

Q) Value lookup for pKd; key = EMSA CsMBE probe (dsDNA) DNA 1: CCGCAGTCACAGTGACTCAGCAGAATCTGA DNA 2: CTCAGATTCTGCTGAGTCACTGTGACTGCG
A) 6.89
